The values you see were collected from paper PMC7226860.

Kindly supply the reported zone of inhibition at 15000 µg/mL values for the records listed here.
Test system: K. pneumonia (ATCC: 4415)
Assay: Agar well diffusion, inhibition zone
Type: cell-based, Klebsiella pneumonia
Conditions: Klebsiella pneumoniae, read-out: diameter of the inhibition zone, K. pneumonia (ATCC: 4415), Gram (−ve), 15 mg/mL, mean ± SD
Answers are plain numbers, in mm.

Observe how each entry below is paired with its result.
>>> assayresult("Cc1ccc(S(=O)(=O)Nn2c(N)c3c(N)n[nH]c3c(-c3nc4ccccc4s3)c2=O)cc1 [compound 11b]")
17.5
>>> assayresult("COc1ccc(NC(=O)c2c(SC)c(-c3nc4ccccc4s3)c(=O)n(NS(=O)(=O)c3ccc(C)cc3)c2N)cc1 [compound 9f]")
29

Lab note: each compound below needs its zone of inhibition at 15000 µg/mL filled in.
1. O=C(Cc1nc2ccccc2s1)NNS(=O)(=O)c1ccccc1 [compound 3a]
2. CSc1c(C#N)c(O)n(NS(=O)(=O)c2ccc(C)cc2)c(=O)c1-c1nc2ccccc2s1 [compound 5d]
3. CSc1c(C(=O)Nc2ccc(C)cc2)c(N)n(NS(=O)(=O)c2ccccc2)c(=O)c1-c1nc2ccccc2s1 [compound 9c]
4. Cc1ccc(S(=O)(=O)NNC(=O)Cc2nc3ccccc3s2)cc1 [compound 3b]
5. CNC(C)C1CCC(N)C(OC2C(N)CC(N)C(OC3OCC(C)(O)C(NC)C3O)C2O)O1 (stereo not drawn) [Gentamicin, reference compound]
6. CSc1c(C#N)c(N)n(NS(=O)(=O)c2ccccc2)c(=O)c1-c1nc2ccccc2s1 [compound 5a]
7. CSc1c(C#N)c(N)n(NS(=O)(=O)c2ccc(C)cc2)c(=O)c1-c1nc2ccccc2s1 [compound 5b]

Output line:
[20, 18.2, 29, 32, 32, 20.6, 25.6]

List reported zone of inhibition at 15000 µg/mL for each of these compounds:
1. Nc1ccc(S(=O)(=O)Nc2ncccn2)cc1 [SD, sulfadiazine, reference compound]
2. CSc1c(C#N)c(O)n(NS(=O)(=O)c2ccccc2)c(=O)c1-c1nc2ccccc2s1 [compound 5c]
3. Nc1n[nH]c2c(-c3nc4ccccc4s3)c(=O)n(NS(=O)(=O)c3ccccc3)c(N)c12 [compound 11a]

Output line:
1: 20.4; 2: 27.3; 3: 15.2

---

The reader will find pIC50 measurements below, all made with human DHFR (Homo sapiens).
Numbers only, as −log10 of the molar value.

>>> assayresult("CSc1c(C#N)c(N)n(NS(=O)(=O)c2ccccc2)c(=O)c1-c1nc2ccccc2s1")
6.26
>>> assayresult("Cc1ccc(S(=O)(=O)NNC(=O)Cc2nc3ccccc3s2)cc1")
5.99
>>> assayresult("Cc1ccc(S(=O)(=O)Nn2c(N)c3c(N)n[nH]c3c(-c3nc4ccccc4s3)c2=O)cc1 [compound 11b]")
4.93
>>> assayresult("CSc1c(C#N)c(N)n(NS(=O)(=O)c2ccc(C)cc2)c(=O)c1-c1nc2ccccc2s1")
6.21

Input line: What does the data say about its pIC50? Entry: Nc1n[nH]c2c(-c3nc4ccccc4s3)c(=O)n(NS(=O)(=O)c3ccccc3)c(N)c12 [compound 11a]
Output line: 6.36

---

I'd appreciate it if you could supply inhibition at 0.1 µg/mL values for the items below.
Target: human DHFR (Homo sapiens, UniProt P00374)
Assay: DHFR inhibitor screening kit
Assay type: biochemical
Details: read-out: Inhibition of DHFR enzyme
Give bare numbers, in %.

>>> assayresult("CSc1c(C#N)c(N)n(NS(=O)(=O)c2ccccc2)c(=O)c1-c1nc2ccccc2s1")
41.8

// input: 2 compounds below; output: inhibition at 0.1 µg/mL for each
1. Nc1n[nH]c2c(-c3nc4ccccc4s3)c(=O)n(NS(=O)(=O)c3ccccc3)c(N)c12 [compound 11a]
2. CSc1c(C#N)c(N)n(NS(=O)(=O)c2ccc(C)cc2)c(=O)c1-c1nc2ccccc2s1

Output line:
1: 44.1; 2: 37.4

Provide each entry's inhibition at 0.1 µg/mL from the list below.
1. Cc1ccc(S(=O)(=O)NNC(=O)Cc2nc3ccccc3s2)cc1
2. Cc1ccc(S(=O)(=O)Nn2c(N)c3c(N)n[nH]c3c(-c3nc4ccccc4s3)c2=O)cc1 [compound 11b]

Output line:
[33.4, 19.3]

---

Test system: E. coli (ATCC: 3008)
Experiment: Agar well diffusion, inhibition zone
Assay type: cell-based, Escherichia coli
Conditions: Escherichia coli, read-out: diameter of the inhibition zone
# binarize zone of inhibition at 15000 µg/mL: threshold 20 mm inclusive, high side true, low side false

>>> answerlabel("CSc1c(C#N)c(O)n(NS(=O)(=O)c2ccccc2)c(=O)c1-c1nc2ccccc2s1")
"true"
>>> answerlabel("Cc1ccc(S(=O)(=O)NNC(=O)Cc2nc3ccccc3s2)cc1")
"false"
>>> answerlabel("CNC(C)C1CCC(N)C(OC2C(N)CC(N)C(OC3OCC(C)(O)C(NC)C3O)C2O)O1 (centres unmarked) [Gentamicin, reference compound]")
"true"
>>> answerlabel("Nc1n[nH]c2c(-c3nc4ccccc4s3)c(=O)n(NS(=O)(=O)c3ccccc3)c(N)c12 [compound 11a]")
"true"

Now for a further molecule.
Input line: Exam item: decide whether the reported zone of inhibition at 15000 µg/mL for `CSc1c(C#N)c(N)n(NS(=O)(=O)c2ccc(C)cc2)c(=O)c1-c1nc2ccccc2s1` is at least 20 mm.
Output line: true

---

Tested on: E. coli (ATCC: 3008)
Test: Agar well diffusion, inhibition zone
Type: cell-based, Escherichia coli
Settings: E. coli (ATCC: 3008), Gram (−ve); agar well diffusion, 15 mg/mL; mean ± SD
assayReadout: diameter of the inhibition zone

>>> assayresult("O=C(Cc1nc2ccccc2s1)NNS(=O)(=O)c1ccccc1 [compound 3a]")
"− ^a"
>>> assayresult("CSc1c(C(=O)Nc2ccccc2)c(N)n(NS(=O)(=O)c2ccccc2)c(=O)c1-c1nc2ccccc2s1 [compound 9a]")
"−"
>>> assayresult("COc1ccc(NC(=O)c2c(SC)c(-c3nc4ccccc4s3)c(=O)n(NS(=O)(=O)c3ccc(C)cc3)c2N)cc1 [compound 9f]")
"−"
>>> assayresult("CSc1c(C#N)c(O)n(NS(=O)(=O)c2ccc(C)cc2)c(=O)c1-c1nc2ccccc2s1 [compound 5d]")
"−"

---

Answer each item with its documented zone of inhibition at 15000 µg/mL.
System: E. coli (ATCC: 3008)
Assay: Agar well diffusion, inhibition zone
Type: cell-based, Escherichia coli
Conditions: Escherichia coli, read-out: diameter of the inhibition zone
Numbers only, in mm.

Worked cases, answers included:
>>> assayresult("CSc1c(C#N)c(N)n(NS(=O)(=O)c2ccccc2)c(=O)c1-c1nc2ccccc2s1 [compound 5a]")
26
>>> assayresult("Nc1ccc(S(=O)(=O)Nc2ncccn2)cc1 [SD, sulfadiazine, reference compound]")
19.8
>>> assayresult("Cc1ccc(S(=O)(=O)Nn2c(N)c3c(N)n[nH]c3c(-c3nc4ccccc4s3)c2=O)cc1 [compound 11b]")
26

Input line: Lab note: need zone of inhibition at 15000 µg/mL with E. coli (ATCC: 3008) for entry CSc1c(C(=O)Nc2ccc(C)cc2)c(N)n(NS(=O)(=O)c2ccccc2)c(=O)c1-c1nc2ccccc2s1 [compound 9c] , please look it up.
Output line: 14.8

---

Would you kindly list inhibition at 0.01 µg/mL for each of these compounds?
Target: human DHFR (Homo sapiens, UniProt P00374)
Assay: DHFR inhibitor screening kit
Assay type: biochemical
Settings: read-out: Inhibition of DHFR enzyme
One number for each entry, in %.

>>> assayresult("Cc1ccc(S(=O)(=O)NNC(=O)Cc2nc3ccccc3s2)cc1")
17.9
>>> assayresult("Cc1ccc(S(=O)(=O)Nn2c(N)c3c(N)n[nH]c3c(-c3nc4ccccc4s3)c2=O)cc1 [compound 11b]")
12.4
>>> assayresult("CSc1c(C#N)c(N)n(NS(=O)(=O)c2ccccc2)c(=O)c1-c1nc2ccccc2s1")
30
>>> assayresult("Nc1n[nH]c2c(-c3nc4ccccc4s3)c(=O)n(NS(=O)(=O)c3ccccc3)c(N)c12 [compound 11a]")
29.6

Now for the compound whose inhibition at 0.01 µg/mL we want.
Input line: Recorded inhibition at 0.01 µg/mL of `CSc1c(C#N)c(N)n(NS(=O)(=O)c2ccc(C)cc2)c(=O)c1-c1nc2ccccc2s1` , please.
Output line: 19.8

---

Task for the reader: assign each of the following molecules its reported inhibition at 10 µg/mL.
Biological target: human DHFR (Homo sapiens)
Sequence (P00374 1-187): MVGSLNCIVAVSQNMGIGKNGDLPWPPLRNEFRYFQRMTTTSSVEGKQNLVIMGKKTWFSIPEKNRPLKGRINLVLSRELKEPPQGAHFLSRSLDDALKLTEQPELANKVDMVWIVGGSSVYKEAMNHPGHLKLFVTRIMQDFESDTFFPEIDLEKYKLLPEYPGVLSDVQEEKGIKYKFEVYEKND
Assay: DHFR inhibitor screening kit
Type: biochemical
Conditions: read-out: Inhibition of DHFR enzyme
Answers are plain numbers, in %.

>>> assayresult("Cc1ccc(S(=O)(=O)NNC(=O)Cc2nc3ccccc3s2)cc1 [compound 3b]")
81.5
>>> assayresult("Nc1n[nH]c2c(-c3nc4ccccc4s3)c(=O)n(NS(=O)(=O)c3ccccc3)c(N)c12 [compound 11a]")
71.8
>>> assayresult("CSc1c(C#N)c(N)n(NS(=O)(=O)c2ccc(C)cc2)c(=O)c1-c1nc2ccccc2s1 [compound 5b]")
79.4
>>> assayresult("CSc1c(C#N)c(N)n(NS(=O)(=O)c2ccccc2)c(=O)c1-c1nc2ccccc2s1 [compound 5a]")
75.9

Below: the item to evaluate.
Input line: Entry under review: Cc1ccc(S(=O)(=O)Nn2c(N)c3c(N)n[nH]c3c(-c3nc4ccccc4s3)c2=O)cc1 [compound 11b] . Reported inhibition at 10 µg/mL?
Output line: 60.1
